Test system: Beet Armyworm (Spodoptera exigua, LAPHEG)
test.description: Bioassays on Beet Armyworm (BAW), 128-well diet tray assay
Format: in vivo
experimental.parameters: Spodoptera exigua; Table ABC: Biological Results; species BAW; read-out: BAW

[
  {
    "molecule": "O=C(Nc1ccc(F)cc1F)c1cc(NC(=O)[C@H]2[C@H](c3ccc(S(F)(F)(F)(F)F)cc3)C2(Cl)Cl)ccc1Cl (relative stereo)",
    "pest or weed control at 50 µg/cm2": "50 to 100%"
  },
  {
    "molecule": "O=C(Nc1cc(NC(=O)C(F)(F)Cl)c(F)cc1F)c1cc(NC(=O)[C@H]2[C@H](c3ccc(Cl)c(Cl)c3)C2(Cl)Cl)ccc1Cl",
    "pest or weed control at 50 µg/cm2": "50 to 100%"
  },
  {
    "molecule": "CN(C(=O)C(F)F)c1c(F)ccc(NC(=O)c2cc(NC(=O)[C@H]3[C@H](c4ccc(Cl)c(Cl)c4)C3(Cl)Cl)ccc2Cl)c1F",
    "pest or weed control at 50 µg/cm2": "50 to 100%"
  }
]

---

Recorded pest or weed control at 50 µg/cm2 for the following compounds
Tested on: Beet Armyworm (Spodoptera exigua, LAPHEG)
test.description: Bioassays on Beet Armyworm (BAW), 128-well diet tray assay
Assay type: in vivo
experimental.parameters: Spodoptera exigua; Table ABC: Biological Results; species BAW; read-out: BAW

[
  {
    "compound": "CC(C)(C)OC(=O)Nc1c(F)ccc(NC(=O)c2cc(NC(=O)[C@H]3[C@H](c4cc(Cl)cc(C(F)(F)F)c4)C3(Cl)Cl)ccc2Cl)c1F (relative stereo)",
    "pest or weed control at 50 µg/cm2": "50 to 100%"
  },
  {
    "compound": "O=C(Nc1ccc(F)c(NC(=O)C(Br)Br)c1F)c1cc(NC(=O)[C@H]2[C@H](c3ccc(F)c(C(F)(F)F)c3)C2(Cl)Cl)ccc1Cl",
    "pest or weed control at 50 µg/cm2": "50 to 100%"
  },
  {
    "compound": "COc1c(F)cc(NC(=O)[C@H]2[C@H](c3ccc(F)c(Cl)c3)C2(Cl)Cl)cc1C(=O)Nc1ccc(NC(C)=O)cc1 (relative stereo)",
    "pest or weed control at 50 µg/cm2": "50 to 100%"
  }
]

---

System: Beet Armyworm (Spodoptera exigua, LAPHEG)
test.description: Bioassays on Beet Armyworm (BAW), 128-well diet tray assay
Format: in vivo
experimental.parameters: Spodoptera exigua; Table ABC: Biological Results; species BAW; read-out: BAW
experimental.endpoint: pest or weed control at 50 µg/cm2

[
  {
    "compound": "O=C(Nc1ccc(F)c(NC(=O)C(F)(F)Br)c1F)c1cc(NC(=O)[C@H]2[C@H](c3ccc(F)c(C(F)(F)F)c3)C2(Cl)Cl)ccc1Cl",
    "experimental.result": "50 to 100%"
  },
  {
    "compound": "O=C(Nc1ccc(F)cc1F)c1cc(NC(=O)[C@H]2[C@H](c3cccc(S(F)(F)(F)(F)F)c3)C2(Cl)Cl)ccc1Cl (relative stereo)",
    "experimental.result": "50 to 100%"
  },
  {
    "compound": "O=C(Nc1ccc(F)cc1F)c1cc(NC(=O)[C@H]2[C@H](c3c(F)c(F)c(F)c(F)c3F)C2(Cl)Cl)ccc1Cl (relative stereo)",
    "experimental.result": "50 to 100%"
  },
  {
    "compound": "O=C(Nc1ccc(F)c(NC(=O)C(F)(F)C(F)(F)F)c1F)c1cc(NC(=O)[C@H]2[C@H](c3ccc(Cl)c(Cl)c3)C2(Cl)Cl)ccc1Cl",
    "experimental.result": "50 to 100%"
  },
  {
    "compound": "CS(=O)(=O)N(c1c(F)ccc(NC(=O)c2cc(NC(=O)[C@H]3[C@H](c4ccc(F)c(C(F)(F)F)c4)C3(Cl)Cl)ccc2Cl)c1F)S(C)(=O)=O",
    "experimental.result": "50 to 100%"
  },
  {
    "compound": "O=C(Nc1ccc(F)c(NC(=O)C(F)(F)F)c1F)c1cc(NC(=O)[C@H]2[C@H](c3ccc(Cl)c(Cl)c3)C2(Cl)Cl)cc(F)c1Cl",
    "experimental.result": "50 to 100%"
  },
  {
    "compound": "O=C(Nc1ccc(F)c(NS(=O)(=O)CCC(F)(F)F)c1F)c1cc(NC(=O)[C@H]2[C@H](c3ccc(F)c(C(F)(F)F)c3)C2(Cl)Cl)ccc1Cl",
    "experimental.result": "50 to 100%"
  },
  {
    "compound": "Cc1cc(NCc2ccccc2)ccc1NC(=O)c1cc(NC(=O)[C@H]2[C@H](c3cc(Cl)cc(Cl)c3)C2(Cl)Cl)ccc1Cl (relative stereo)",
    "experimental.result": "50 to 100%"
  },
  {
    "compound": "O=C(Nc1ccc(F)c(NC(=O)C(F)F)c1F)c1cc(NC(=O)[C@H]2[C@H](c3ccc(Cl)c(Br)c3)C2(Cl)Cl)ccc1Cl (relative stereo)",
    "experimental.result": "50 to 100%"
  },
  {
    "compound": "O=C(Nc1ccc(F)c(NC(=O)C(F)F)c1F)c1cc(NC(=O)[C@H]2[C@H](c3cccc(I)c3)C2(Cl)Cl)ccc1Cl (relative stereo)",
    "experimental.result": "50 to 100%"
  },
  {
    "compound": "O=C(Nc1c(F)cc(NC(=O)C(F)(F)F)cc1F)c1cc(NC(=O)[C@H]2[C@H](c3ccc(Cl)c(Cl)c3)C2(Cl)Cl)ccc1Cl",
    "experimental.result": "50 to 100%"
  },
  {
    "compound": "Cc1cc(NCCc2ccccc2)ccc1NC(=O)c1cc(NC(=O)[C@H]2[C@H](c3cc(Cl)cc(Cl)c3)C2(Cl)Cl)ccc1Cl (relative stereo)",
    "experimental.result": "50 to 100%"
  },
  {
    "compound": "CC(=O)Nc1ccc(NC(=O)c2cc(NC(=O)[C@H]3[C@H](c4ccc(Cl)c(Cl)c4)C3(Cl)Cl)ccc2Cl)c(C)c1 (relative stereo)",
    "experimental.result": "50 to 100%"
  },
  {
    "compound": "Nc1c(F)ccc(NC(=O)c2cc(NC(=O)[C@H]3[C@H](c4cc(Cl)cc(S(F)(F)(F)(F)F)c4)C3(Cl)Cl)ccc2Cl)c1F (relative stereo)",
    "experimental.result": "50 to 100%"
  },
  {
    "compound": "Nc1c(F)ccc(NC(=O)c2cc(NC(=O)[C@H]3[C@H](c4cc(F)c(Cl)c(Cl)c4)C3(Cl)Cl)ccc2Cl)c1F (relative stereo)",
    "experimental.result": "50 to 100%"
  },
  {
    "compound": "COc1ccc(CNc2ccc(NC(=O)c3cc(NC(=O)[C@H]4[C@H](c5cc(Cl)cc(Cl)c5)C4(Cl)Cl)ccc3Cl)c(C)c2)cc1 (relative stereo)",
    "experimental.result": "50 to 100%"
  }
]

---

Test system: Yellow Fever Mosquito (Aedes aegypti, AEDSAE)
Type: in vivo
experimental.parameters: Table ABC: Biological Results; species YFM

[
  {
    "compound": "O=C(Nc1ccc(F)cc1)c1cc(NC(=O)[C@H]2[C@H](c3cc(Cl)c(Cl)c(Br)c3)C2(Cl)Cl)ccc1Cl (relative stereo)",
    "measurement.target": "Yellow Fever Mosquito (Aedes aegypti, AEDSAE)",
    "YFM": "A (80–100)"
  },
  {
    "compound": "Nc1c(F)ccc(NC(=O)c2cc(NC(=O)[C@H]3[C@H](c4cccc(I)c4)C3(Cl)Cl)ccc2Cl)c1F (relative stereo)",
    "measurement.target": "Yellow Fever Mosquito (Aedes aegypti, AEDSAE)",
    "YFM": "A (80–100)"
  },
  {
    "compound": "Nc1c(F)ccc(NC(=O)c2cc(NC(=O)[C@H]3[C@H](c4cc(Cl)c(F)c(Cl)c4)C3(Cl)Cl)ccc2Cl)c1F (relative stereo)",
    "measurement.target": "Yellow Fever Mosquito (Aedes aegypti, AEDSAE)",
    "YFM": "A (80–100)"
  },
  {
    "compound": "Nc1c(F)ccc(NC(=O)c2cc(NC(=O)[C@H]3[C@H](c4cc(Br)cc(C(F)(F)F)c4)C3(Cl)Cl)ccc2Cl)c1F (relative stereo)",
    "measurement.target": "Yellow Fever Mosquito (Aedes aegypti, AEDSAE)",
    "YFM": "A (80–100)"
  },
  {
    "compound": "Cc1cc(NCc2ccc(C#N)cc2)ccc1NC(=O)c1cc(NC(=O)[C@H]2[C@H](c3cc(Cl)cc(Cl)c3)C2(Cl)Cl)ccc1Cl (relative stereo)",
    "measurement.target": "Yellow Fever Mosquito (Aedes aegypti, AEDSAE)",
    "YFM": "A (80–100)"
  },
  {
    "compound": "O=C(Nc1ccc(F)cc1Br)c1cc(NC(=O)[C@H]2[C@H](c3cc(Cl)cc(Cl)c3)C2(Cl)Cl)ccc1Cl (relative stereo)",
    "measurement.target": "Yellow Fever Mosquito (Aedes aegypti, AEDSAE)",
    "YFM": "A (80–100)"
  },
  {
    "compound": "O=C(Nc1c(F)ccc(NC(=O)C(F)F)c1F)c1cc(NC(=O)[C@H]2[C@H](c3cc(Cl)cc(Cl)c3)C2(Cl)Cl)ccc1Cl",
    "measurement.target": "Yellow Fever Mosquito (Aedes aegypti, AEDSAE)",
    "YFM": "A (80–100)"
  },
  {
    "compound": "O=C(Nc1ccc(F)c(NC(=O)C(Cl)Cl)c1F)c1cc(NC(=O)[C@H]2[C@H](c3ccc(F)c(C(F)(F)F)c3)C2(Cl)Cl)ccc1Cl",
    "measurement.target": "Yellow Fever Mosquito (Aedes aegypti, AEDSAE)",
    "YFM": "A (80–100)"
  },
  {
    "compound": "CC(=O)Nc1cc(NC(=O)c2cc(NC(=O)[C@H]3[C@H](c4ccc(Cl)c(Cl)c4)C3(Cl)Cl)ccc2Cl)c(F)cc1F",
    "measurement.target": "Yellow Fever Mosquito (Aedes aegypti, AEDSAE)",
    "YFM": "A (80–100)"
  },
  {
    "compound": "Nc1c(F)ccc(NC(=O)c2cc(NC(=O)[C@H]3[C@H](c4cc(Br)cc(S(F)(F)(F)(F)F)c4)C3(Cl)Cl)ccc2Cl)c1F (relative stereo)",
    "measurement.target": "Yellow Fever Mosquito (Aedes aegypti, AEDSAE)",
    "YFM": "A (80–100)"
  },
  {
    "compound": "CC(F)(F)C(=O)Nc1c(F)ccc(NC(=O)c2cc(NC(=O)[C@H]3[C@H](c4ccc(F)c(C(F)(F)F)c4)C3(Cl)Cl)ccc2Cl)c1F",
    "measurement.target": "Yellow Fever Mosquito (Aedes aegypti, AEDSAE)",
    "YFM": "A (80–100)"
  },
  {
    "compound": "O=C(Nc1ccc(F)cc1F)c1cc(NC(=O)[C@H]2[C@H](c3ccc(F)c(Cl)c3)C2(Cl)Cl)cc(C(F)(F)F)c1Cl (relative stereo)",
    "measurement.target": "Yellow Fever Mosquito (Aedes aegypti, AEDSAE)",
    "YFM": "A (80–100)"
  },
  {
    "compound": "Cc1cc(NC(=O)[C@H]2[C@H](c3ccc(F)c(Cl)c3)C2(Cl)Cl)cc(C(=O)Nc2ccccc2)c1Cl (relative stereo)",
    "measurement.target": "Yellow Fever Mosquito (Aedes aegypti, AEDSAE)",
    "YFM": "A (80–100)"
  }
]
